meta.source: paper PMC12169608

Molecular target: SARS-CoV-2 M^pro (Severe acute respiratory syndrome coronavirus 2)
Assay: biochemical
Assay type: biochemical
Settings: read-out: M^pro biochemical assay pIC50 (converted)
I'd be grateful if you could share measured IC50 for these entries.
Number first, unit second.

Provide measured IC50 value, entry: COc1cccc2[nH]c(C(=O)N[C@H](Cc3cccc(F)c3)C(=O)N[C@@H](C[C@@H]3CCNC3=O)C(=O)COc3c(F)c(F)c(CO)c(F)c3F)cc12
4270 nM

Annotate the molecule COc1cccc2[nH]c(C(=O)N[C@@H](Cc3cccc(F)c3)C(=O)N[C@@H](C[C@@H]3CC(=O)NC3=O)C(=O)COc3c(F)c(F)c(CO)c(F)c3F)cc12 with its measured IC50.
6.03 nM

Return IC50 (reported value) for this molecule: COc1cccc2[nH]c(C(=O)N[C@@H](Cc3cccc(F)c3)C(=O)N[C@@H](CCn3cn[nH]c3=O)C(=O)COc3c(F)c(F)c(C(C)(C)O)c(F)c3F)cc12
295 nM

For the molecule CCCCCCCCCCCCCCCC(=O)N[C@@H](Cc1cccc(F)c1)C(=O)N[C@@H](C[C@@H]1CCNC1=O)C(=O)COc1c(F)c(F)c(CO)c(F)c1F , give its measured IC50 value.
3800 nM

Please indicate IC50 recorded for COc1cccc2[nH]c(C(=O)N[C@@H](Cc3cccc(F)c3)C(=O)N[C@@H](C[C@@H]3CCNC3=O)C(=O)COc3c(F)c(F)c(C(C)(C)O)c(F)c3F)cc12
7.08 nM

* * *

Experiment: in vitro
Details: mouse, microsomes, pH 7.4
ENDPOINT_NAME: remaining at 1 h, 1 µM

Assign remaining at 1 h, 1 µM to the following record: COc1cccc2[nH]c(C(=O)N[C@@H](Cc3cccc(F)c3)C(=O)N[C@@H](C[C@@H]3CCNC3=O)C(=O)COc3c(F)c(F)c(CO)c(F)c3F)cc12 [compound 1]
0%

Supply remaining at 1 h, 1 µM value. Item: COc1cccc2[nH]c(C(=O)N[C@@H](Cc3cccc(F)c3)C(=O)N[C@@H](C[C@@H]3CCNC3=O)C(=O)COc3c(F)c(F)c(C(C)(C)O)c(F)c3F)cc12 [compound 10]
0%

Supply reported remaining at 1 h, 1 µM belonging to this compound: COc1cccc2[nH]c(C(=O)N[C@@H](Cc3cccc(F)c3)C(=O)N[C@@H](C[C@@H]3CCNC3=O)C(=O)COc3c(F)c(F)c(C(C)O)c(F)c3F)cc12 (stereo partly drawn) [compound 8]
0%

* * *

Provide the recorded hepatocyte CLint at 2 h, 2 µM for the entries that follow.
Assay: in vitro
Settings: human, hepatocytes
Write the quantity with the unit trailing the number.

Output hepatocyte CLint at 2 h, 2 µM of CC(C)(O)c1c(F)c(F)c(OCC(=O)[C@H](C[C@@H]2CCNC2=O)NC(=O)[C@@H]2[C@@H]3[C@H](CN2C(=O)[C@@H](NC(=O)C(F)(F)F)C(C)(C)C)C3(C)C)c(F)c1F
6.6 µL/min/1e6 cells

Give the value of hepatocyte CLint at 2 h, 2 µM reported for the following: COc1cccc2[nH]c(C(=O)N[C@@H](Cc3cccc(F)c3)C(=O)N[C@@H](C[C@@H]3CCNC3=O)C(=O)COc3c(F)c(F)c(CO)c(F)c3F)cc12
12.5 µL/min/1e6 cells
